System: LOX IMVI
method.summary: NCI tumour cell line growth inhibition, 48 h
Calls of active or inactive are those of the source. No stated cut-off is given here; in the data, active = GI50 up to about 1.1 µM and inactive = higher.
Please reply with one of these outcomes: active, inactive

CCOC(=O)NC(C(C(=O)OCC)C(=O)OCC)(C(F)(F)F)C(F)(F)F = inactive
Cc1c2ccccc2c(CO)c2cc(F)c3ccccc3c12 = inactive
CC[C@@]1(O)C(=O)OCc2c1cc1n(c2=O)Cc2cc3cc(OC)ccc3nc2-1 = active

Given N#C/C(=C\n1ccc(=O)[nH]c1=S)C(N)=O , state the outcome it received in this test.
inactive

Given COc1cc2c(cc1OC)[C@H]1CN3CCC[C@H]3C=C1c1ccc(OC)c(O)c1-2 , state the outcome it received in this test.
active
